- TEST_METHOD_NOTES: Reducing power by Somogyi-Nelson's method expressed as DE
- Type: physicochemical
- ASSAY_CONTEXT: high-purity saccharide preparations of Experiment 4
Recorded DE by entry
PROPERTY_NAME: DE

SMILES	PROPERTY_NAME	RECORDED_NUMBER
OC[C@H]1O[C@H](O[C@H]2O[C@H](CO)[C@@H](O[C@H]3O[C@H](CO)[C@@H](O[C@H]4O[C@H](CO)[C@@H](O[C@H]5O[C@H](CO)[C@@H](O[C@H]6O[C@H](CO)[C@@H](O[C@H]7O[C@H](CO)[C@@H](O)[C@H](O)[C@H]7O)[C@H](O)[C@H]6O)[C@H](O)[C@H]5O)[C@H](O)[C@H]4O)[C@H](O)[C@H]3O)[C@H](O)[C@H]2O)[C@H](O)[C@@H](O)[C@@H]1O	DE	0.23
OC[C@H]1O[C@H](O[C@H]2O[C@H](CO)[C@@H](O[C@H]3O[C@H](CO)[C@@H](O[C@H]4O[C@H](CO)[C@@H](O)[C@H](O)[C@H]4O)[C@H](O)[C@H]3O)[C@H](O)[C@H]2O)[C@H](O)[C@@H](O)[C@@H]1O	DE	0.35
